System: SEM cells
Assay method text: cell viability relative to DMSO control; higher = less cytotoxic
Run parameters: RPMI 5 mM glucose + 10% FBS; 48 h; 5.12 µM
Parameter: cell viability (%)
Give bare numbers, in %.

Consider the worked cases shown below.
                                   molecule  test_value
0  CC(C)C(C)/C=C/C(C)C1CCC2C3=CC=C4CC(O)CCC4(C)C3CCC21C (stereo not given)        98.5
1     COc1c(C)cnc(Cn2cnc3c(Cl)nc(N)nc32)c1C        16.1
2  CN(C)CCOc1cc(-c2cn[nH]c2)ccc1NC(=O)C1COc2ccccc2O1 (stereo not given)         105
3              C\C1=C\C(=O)OC2=C1C=CC(=C2)O         108
4  CC1(C)CCC[C@]2(C)[C@H]3CC(=O)O[C@]3(C)CC[C@@H]12         112
5  C[C@]\12CC[C@H](O)CC1=C/CC3C2CC[C@@]\4(C)C3C\C=C4[N]5C=NC6=C5C=CC=C6 (stereo not given in full)         117
6  CN(c1ncccc1CNc1nc(Nc2ccc3c(c2)CC(=O)N3)ncc1C(F)(F)F)[S+](C)(=O)[O-]          13
7           CC/1=C/C(=O)N(O)/C(=C1)C2CCCCC2         101

Could you tell me cell viability for each of these molecules? They are listed below.
1. CC\1=C/C=C\C=[N]1[Pt](N)(Cl)Cl
2. CCCCCCCCCCCCCCCCCCCCCCO

OUT:
1. 110
2. 98.4

Numbers sourced from the supplement of paper PMC11451515.
